- ASSAY COMMENT: RNA encapsulation efficiency of LNPs (Ribogreen fluorescence assay)
- Format: physicochemical
- CONDITION DETAILS: LNP, sg:mRNA 1:1, N/P 6.0, 50/9/38/3; Table 4, Experiments 101-104
MEASURED PROPERTY: % E (%)

MOLECULE	MEASURED PROPERTY	UNIT OF MEASUREMENT	ASSAY VALUE
CCCCC/C=C\C/C=C\CCCCCCCC(=O)OCC(COC(=O)CCC(OCCCCCCCC)OCCCCCCCC)COC(=O)NCC1CCCN1CC (centres unmarked)	% E	%	95
CCCCC/C=C\C/C=C\CCCCCCCC(=O)OCC(COC(=O)CCCN(CC)CC)COC(=O)CCC(OCCCCCCCC)OCCCCCCCC (centres unmarked)	% E	%	99
CCCCC/C=C\C/C=C\CCCCCCCC(=O)OCC(COC(=O)CCC(OCCCCCCCC)OCCCCCCCC)COC(=O)OCC1CCCN(C)C1 (centres unmarked)	% E	%	99
CCCCC/C=C\C/C=C\CCCCCCCC(=O)OCC(COC(=O)CCC(OCCCCCCCC)OCCCCCCCC)COC(=O)C1CCN(C)CC1 (centres unmarked)	% E	%	99
CCCCCC/C=C\COC(=O)CCCCCCCC(=O)OCC(COC(=O)CCC(OCCCCCCCC)OCCCCCCCC)COC(=O)OCCCN(CC)CC (centres unmarked)	% E	%	98

* * *

- ASSAY COMMENT: Dynamic light scattering of LNPs: Z-average diameter, number average diameter, PDI
- Format: physicochemical
- CONDITION DETAILS: LNP, sg:mRNA 1:1, N/P about 6, 50/9/38/3; Table 2, Experiments 2-20
- Excerpt: Dynamic Light Scattering (“DLS”) is used to characterize the polydispersity index (“PDI”) and size of the LNPs of the present disclosure. DLS measures the scattering of light that results from subjecting a sample to a light source. PDI, as determined from DLS measurements, represents the distribution of particle size (around the mean particle size) in a population, with a perfectly uniform population having a PDI of zero. […]
MEASURED PROPERTY: PDI

These solved cases illustrate the format of a correct answer.
COMPOUND	PDI
CCCCC/C=C\C/C=C\CCCCCCCC(=O)OCC(COC(=O)CCC(OCCCCCCCC)OCCCCCCCC)COC(=O)OCCCCN(CC)CC (stereo not shown)	0.022
CCCCC/C=C\C/C=C\CCCCCCCC(=O)OCC(COC(=O)CCC(OCCCCCCCC)OCCCCCCCC)COC(=O)OCCCN(C)CC (stereo not shown)	0.023

A. CCCCC/C=C\C/C=C\CCCCCCCC(=O)OCC(COC(=O)CCCCCC(=O)OC(CCCCCCCC)CCCCCCCC)COC(=O)OCCCN(CC)CC (stereo not shown)
B. CCCCCCCCCCOC(=O)CCCCCCCC(=O)OCC(COC(=O)CCCN(CC)CC)COC(=O)CCC(OCCCCCCCC)OCCCCCCCC (stereo not shown)
// which entry reports the smaller PDI, A or B ? Returns: label corresponding to the selected item. B

* * *

- ASSAY COMMENT: Dynamic light scattering of LNPs: Z-average diameter, number average diameter, PDI
- Type: physicochemical
- CONDITION DETAILS: LNP, sg:mRNA 1:1, N/P about 6, 50/9/38/3; Table 2, Experiments 2-20
MEASURED PROPERTY: Number mean (nm)

COMPOUND	UNIT OF MEASUREMENT	Number mean (nm)
CCCCC/C=C\C/C=C\CCCCCCCC(=O)OCC(COC(=O)CCC(OCCCCCCCC)OCCCCCCCC)COC(=O)OCCN1CCCC1 (stereo not shown) [Compound 10]	nm	39.12

A. CCCCC/C=C\C/C=C\CCCCCCCC(=O)OCC(COC(=O)CCC(OCCCCCCCC)OCCCCCCCC)COC(=O)OCCCCN(CC)CC (stereo not shown) [Compound 11]
B. CCCCC/C=C\C/C=C\CCCCCCCC(=O)OCC(COC(=O)CCC(OCCCCCCCC)OCCCCCCCC)COC(=O)N1CCN(C)CC1 (stereo not shown) [Compound 47]
// which entry reports the smaller Number mean (nm), A or B ? Returns: label corresponding to the selected item. B

A. CCCCCCCCCCCCOC(=O)CCCCCCCC(=O)OCC(COC(=O)CCC(OCCCCCCCC)OCCCCCCCC)COC(=O)OCCCN(CC)CC (stereo not shown) [Compound 92]
B. CCCCC/C=C\C/C=C\CCCCCCCC(=O)OCC(COC(=O)CCC(OCCCCCCCC)OCCCCCCCC)COC(=O)CCN(CC)CC (stereo not shown) [Compound 27]
// which entry reports the smaller Number mean (nm), A or B ? Returns: label corresponding to the selected item. B
(B: 45 nm, A: 77.35 nm)

* * *

- ASSAY COMMENT: RNA encapsulation efficiency of LNPs (Ribogreen fluorescence assay)
- Format: physicochemical
- CONDITION DETAILS: LNP, sg:mRNA 1:1, N/P about 6, amine lipid/DSPC/cholesterol/PEG-2k-DMG 50/9/38/3; Table 2, Experiments 2-20
MEASURED PROPERTY: Encapsulation (%)

COMPOUND	UNIT OF MEASUREMENT	ASSAY VALUE
CCCCC/C=C\C/C=C\CCCCCCCC(=O)OCC(COC(=O)CCC(OCCCCCCCC)OCCCCCCCC)COC(=O)NCC1CCCN1C (stereo not shown)	%	97
CCCCCC/C=C\COC(=O)CCCCCCCC(=O)OCC(COC(=O)CCC(OCCCCCCCC)OCCCCCCCC)COC(=O)OCCCN(CC)CC (stereo not shown)	%	98
CCCCC/C=C\C/C=C\CCCCCCCC(=O)OCC(COC(=O)CCC(OCCCCCCCC)OCCCCCCCC)COC(=O)NC1CCN(CC)C1 (stereo not shown)	%	98
CCCCCCCCCCOC(=O)CCCCCCCC(=O)OCC(COC(=O)CCC(OCCCCCCCC)OCCCCCCCC)COC(=O)OCC1CCCN(C)C1 (stereo not shown)	%	99
CCCCC/C=C\C/C=C\CCCCCCCC(=O)OCC(COC(=O)CC(CCCCCCCC)CCCCCCCC)COC(=O)OCCCN(CC)CC (stereo not shown)	%	98
CCCCC/C=C\C/C=C\CCCCCCCC(=O)OCC(COC(=O)CCCC(CCCCCCC)CCCCCCC)COC(=O)OCCCN(CC)CC (stereo not shown)	%	99
CCCCCCCCCCOC(=O)CCCCCCCC(=O)OCC(COC(=O)CCC(OCCCCCCCC)OCCCCCCCC)COC(=O)NCCN(CC)CC (stereo not shown)	%	97
CCCCC/C=C\C/C=C\CCCCCCCC(=O)OCC(COC(=O)CCC(OCCCCCCCC)OCCCCCCCC)COC(=O)OCCCN(C(C)C)C(C)C (stereo not shown)	%	94
CCCCCCCCCCOC(=O)CCCCCCCC(=O)OCC(COC(=O)CCCCCC(=O)OC(CCCCCCCC)CCCCCCCC)COC(=O)CCCN(C)C (stereo not shown)	%	98
CCCCC/C=C\C/C=C\CCCCCCCC(=O)OCC(COC(=O)CCCCN(CC)CC)COC(=O)CCC(OCCCCCCCC)OCCCCCCCC (stereo not shown)	%	98
CCCCCCCCCCOC(=O)CCCCCCCC(=O)OCC(COC(=O)CCCC(=O)OC(CCCCCCCC)CCCCCCCC)COC(=O)NCCN(CC)CC (stereo not shown)	%	98
CCCCC/C=C\C/C=C\CCCCCCCC(=O)OCC(COC(=O)CCC(OCCCCCCCC)OCCCCCCCC)COC(=O)OCCN(CC)CC (stereo not shown)	%	89
CCCCCC/C=C\COC(=O)CCCCCCCC(=O)OCC(COC(=O)CCC(OCCCCCCC)OCCCCCCC)COC(=O)OCCCN(CC)CC (stereo not shown)	%	95
CCCCC/C=C\C/C=C\CCCCCCCC(=O)OCC(COC(=O)CCC(OCCCCCCCC)OCCCCCCCC)COC(=O)NC1CCCN(CC)C1 (stereo not shown)	%	98
CCCCCCCCCCOC(=O)CCCCCCCCCCCC(=O)OCC(COC(=O)CCC(OCCCCCCCC)OCCCCCCCC)COC(=O)OCCCN(CC)CC (stereo not shown)	%	99
CCCCC/C=C\C/C=C\CCCCCCCC(=O)OCC(COC(=O)OCCCN(CC)CC)COC(=O)C(CCCCCC)CCCCCCCC (stereo not shown)	%	98
CCCCC/C=C\C/C=C\CCCCCCCC(=O)OCC(COC(=O)CCC(OCCCCCCCC)OCCCCCCCC)COC(=O)N1CCN(C)CC1 (stereo not shown)	%	97
CCCCC/C=C\C/C=C\CCCCCCCC(=O)OCC(COC(=O)CCCN(CC)CC)COC(=O)CCC(OCCCCCCCC)OCCCCCCCC (stereo not shown)	%	98
CCCCCCCCCCOC(=O)CCCCCCCC(=O)OCC(COC(=O)CCC(OCCCCCCCCC)OCCCCCCCCC)COC(=O)OCCCN(CC)CC (stereo not shown)	%	99
CCCCC/C=C\C/C=C\CCCCCCCC(=O)OCC(COC(=O)CCC(OCCCCCCCC)OCCCCCCCC)COC(=O)CCN(CC)CC (stereo not shown)	%	97
CCCCCCCCCCOC(=O)CCCCCCCC(=O)OCC(COC(=O)CCCCCC(=O)OC(CCCCCCCC)CCCCCCCC)COC(=O)OCCCN(CC)CC (stereo not shown)	%	99
CCCCC/C=C\C/C=C\CCCCCCCC(=O)OCC(COC(=O)CCC(OCCCCCCCC)OCCCCCCCC)COC(=O)NC1CCCN(C)C1 (stereo not shown)	%	99
CCCCCCCCCC(CC)OC(=O)CCCCCCCC(=O)OCC(COC(=O)CCC(OCCCCCCCC)OCCCCCCCC)COC(=O)OCCCN(CC)CC (stereo not shown)	%	99
CCCCCC/C=C\COC(=O)CCCCCCCCCC(=O)OCC(COC(=O)CCC(OCCCCCCCC)OCCCCCCCC)COC(=O)OCCCN(CC)CC (stereo not shown)	%	98
CCCCC/C=C\C/C=C\CCCCCCCC(=O)OCC(COC(=O)CCC(OCCCCCCCC)OCCCCCCCC)COC(=O)OCC1CCN(CC)C1 (stereo not shown)	%	98
